Where do these numbers come from? They come from patent US20240294604A1.

tested.on: T1, A Proliferation Inducing Ligand (APRIL) (human, UniProt O75888 105-250)
T1 sequence: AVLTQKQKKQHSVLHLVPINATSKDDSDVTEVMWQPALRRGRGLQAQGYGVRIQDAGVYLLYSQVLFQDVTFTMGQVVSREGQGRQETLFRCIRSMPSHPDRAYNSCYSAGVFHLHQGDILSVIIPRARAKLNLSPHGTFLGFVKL
measurement.protocol: cell binding titration by flow cytometry; soluble APRIL varied to 10 nM on cells displaying the BCMA clone; BP is not defined in the filing
reported.metric: BP
Provide a numeric answer; units are not to be included.

binder: BCMA#95 (receptor, also called Clone #95) variant BCMA extracellular domain: VSQTAGQCSQDEYFDSLLYACIPCQLRCSSNTPPLACQRYCNASVTNSVKGTNA
BP: 258
--
binder: BCMA#72 (receptor, also called Clone #72; sBCMA variant clone 72) variant BCMA extracellular domain: MLQMAGQCSQNEYFDGLLYACIPCQLRCSSNTPPLACQRYCNASVTNSVKGTNA
BP: 325
--
binder: BCMA#73 (receptor, also called Clone #73; clone #22) variant BCMA extracellular domain: MLQMAGQCSQNEYFDGLLHACIPCQLRCSSNTPPLACQRYCNASVTNSVKGTNA
BP: 102
--
binder: BCMA#75 (receptor, also called Clone #75; clones #49, 75-94) variant BCMA extracellular domain: MLPMAGQCPQNEYFDSLLYACIPCQLRCSSSTPPLACQHYCNASVTRSVEGTNA
BP: 441
--
binder: BCMA#106 (receptor, also called Clone #106; clones #106-111) variant BCMA extracellular domain: VSQTAGQCSQNEYFDGLLHACIPCQLRCSSDIPPLACQRYCNASVTNSVKGTNA
BP: 527

Consider BCMA#71 (receptor, also called Clone #71; sBCMA variant clone 71) variant BCMA extracellular domain: MLQMAGQCSQNEYFDGLLYACIPCQLRCSSNTPPLACQRYCNASVTNSVKGTDA . Its measured BP is 1030

Consider BCMA#74 (receptor, also called Clone #74; sBCMA variant clone 74) variant BCMA extracellular domain: MLQMAGQCPQDEYFDGLLYACIPCQLRCSSNTPPLACQRYCNASVTSSVKGTDA . Its measured BP is 1310
